System: PfSIP2 AP2 domain 1 (GST-tagged)
assay: gcPBM binding intensity (ln(normalized median fluorescence intensity)); higher = stronger DNA binding
Over roughly 25,000 sequences, “ln(normalized median fluorescence intensity)” has its median near 7.1; the highest 2% begin near 10. The sample as a whole holds a higher share of the highest values than the screen did.
The entries below are paired with their reported gcPBM binding intensity (ln).

[
  {
    "residues": "TGAAATTTTATTAATGTGCACATATATTTATTGTTC",
    "gcPBM binding intensity (ln)": 8.56
  },
  {
    "residues": "TTATAATTTTAATGTGCACACAATTAAAATATTATA [CACACA_site5172]",
    "gcPBM binding intensity (ln)": 9.21
  },
  {
    "residues": "TTTATATTAATTGATGTGCACTGAAATATTTGTCCA [GTGCAC_site9655]",
    "gcPBM binding intensity (ln)": 10.2
  },
  {
    "residues": "AAAAAAATTAATAATGTGCACTTTTTAGTATTTTTA [GTGCAC_site9744]",
    "gcPBM binding intensity (ln)": 10.3
  },
  {
    "residues": "ATTTATATTAAAAGTGTGCACTTTTTTTTTTTTTTT",
    "gcPBM binding intensity (ln)": 10.1
  }
]

###

Test system: PfSIP2 AP2 domain 1 (GST-tagged)
assay: gcPBM binding intensity (ln(normalized median fluorescence intensity)); higher = stronger DNA binding
The full ranking holds about 25,000 sequences; the median of “ln(normalized median fluorescence intensity)” is about 7.1, and the highest 2% start at about 10. The sample holds the highest values, similar sequences and a random draw of the others, so the mix is not that of the screen.
The entries below are paired with their reported gcPBM binding intensity (ln).
reportedEndpoint: gcPBM binding intensity (ln)

[
  {
    "residues": "TTGAAAAATCAGCACACACACAAATACATACATATT [CACACA_site7505]",
    "reportedEndpoint": "gcPBM binding intensity (ln)",
    "experimentalResult": 7.03
  },
  {
    "residues": "ATATATTATATATATTTTAAGTAATTTGCAAAAAAT [GTGCAC_negctrl_site361]",
    "reportedEndpoint": "gcPBM binding intensity (ln)",
    "experimentalResult": 7.01
  },
  {
    "residues": "TTTTGTTATTTTGAAGTGCACTTTCCACTTAATATA",
    "reportedEndpoint": "gcPBM binding intensity (ln)",
    "experimentalResult": 11
  },
  {
    "residues": "TATAATAATATTTATTGTACAATTAGTTTAATTCAT [XGTACX_site272]",
    "reportedEndpoint": "gcPBM binding intensity (ln)",
    "experimentalResult": 7.08
  },
  {
    "residues": "CATAATATGTGGACTTTACACACTTGTTTTAAAATT [CACACA_site819]",
    "reportedEndpoint": "gcPBM binding intensity (ln)",
    "experimentalResult": 6.87
  },
  {
    "residues": "TTTTTTTTGATTTGTTTGCACTTATTTCCACAATAA",
    "reportedEndpoint": "gcPBM binding intensity (ln)",
    "experimentalResult": 8.23
  },
  {
    "residues": "GTATAATATTTTAATGCACACACACTAATAAAAAAA [CACACA_site8939]",
    "reportedEndpoint": "gcPBM binding intensity (ln)",
    "experimentalResult": 7.65
  },
  {
    "residues": "AATAATATTTATTTTTGTACATATGTGCATTATAAA [XGTACX_site3682]",
    "reportedEndpoint": "gcPBM binding intensity (ln)",
    "experimentalResult": 7.13
  },
  {
    "residues": "GTATATAAATATATATATATATATATATCTATATTT [CACACA_negctrl_site871]",
    "reportedEndpoint": "gcPBM binding intensity (ln)",
    "experimentalResult": 7.42
  },
  {
    "residues": "TTTTTTATAAATCAAATGAAAAATAAACTATTCAGA [CACACA_negctrl_site1568]",
    "reportedEndpoint": "gcPBM binding intensity (ln)",
    "experimentalResult": 6.59
  },
  {
    "residues": "ACATACATATGTAAATGTACAAAATATCCATAGATT [XGTACX_site2782]",
    "reportedEndpoint": "gcPBM binding intensity (ln)",
    "experimentalResult": 6.81
  },
  {
    "residues": "TGTATAATATTTGGTGCACACAAATTAACAACTGTT [CACACA_site9245]",
    "reportedEndpoint": "gcPBM binding intensity (ln)",
    "experimentalResult": 11.4
  },
  {
    "residues": "ATATATATTAATTTTGTGCACAAATGGAAATGTTTG [GTGCAC_site9971]",
    "reportedEndpoint": "gcPBM binding intensity (ln)",
    "experimentalResult": 8.34
  },
  {
    "residues": "TGGCACTAAAAAAATAAACACACAGATTTATATAAT [CACACA_site8386]",
    "reportedEndpoint": "gcPBM binding intensity (ln)",
    "experimentalResult": 6.8
  },
  {
    "residues": "ATATATATATATAATAAACACACAAATAGATATAAC [CACACA_site9234]",
    "reportedEndpoint": "gcPBM binding intensity (ln)",
    "experimentalResult": 9.02
  },
  {
    "residues": "TAAAAACATTTAAATTGTACGGAAATAAAAATTTTT [XGTACX_site8225]",
    "reportedEndpoint": "gcPBM binding intensity (ln)",
    "experimentalResult": 6.94
  },
  {
    "residues": "TATATAGAGAGATATGCACACTGTATGAATGCCCCC [CACACA_site5476]",
    "reportedEndpoint": "gcPBM binding intensity (ln)",
    "experimentalResult": 9.53
  },
  {
    "residues": "TTTTTCATATGACACACACACAAAAATAATGTGGAA [CACACA_site7692]",
    "reportedEndpoint": "gcPBM binding intensity (ln)",
    "experimentalResult": 6.99
  },
  {
    "residues": "TATAATATTTGGTGCACACAAATTAACAACTGTTTA [CACACA_site3742]",
    "reportedEndpoint": "gcPBM binding intensity (ln)",
    "experimentalResult": 11.7
  },
  {
    "residues": "ATTCTTTTTTTTTGGAAATGTATTTTTATGTTTTGT [TGCATGCA_negctrl_site426]",
    "reportedEndpoint": "gcPBM binding intensity (ln)",
    "experimentalResult": 6.73
  },
  {
    "residues": "ATATTTATAAATTGCACACAAATAATAACATTATAT [CACACA_site5322]",
    "reportedEndpoint": "gcPBM binding intensity (ln)",
    "experimentalResult": 7.13
  },
  {
    "residues": "TATTAAATTTATCGGAGTACATTTAAATGTATATAC [XGTACX_site7975]",
    "reportedEndpoint": "gcPBM binding intensity (ln)",
    "experimentalResult": 7.13
  },
  {
    "residues": "TATATATATTAGTGTGCACACTTTTTATTTTTATCC [CACACA_site8506]",
    "reportedEndpoint": "gcPBM binding intensity (ln)",
    "experimentalResult": 8.6
  },
  {
    "residues": "GAAATTTTTAATGTGGTGCACAGGAAATTTTTTCTT",
    "reportedEndpoint": "gcPBM binding intensity (ln)",
    "experimentalResult": 11
  },
  {
    "residues": "CCATTTTAAATATGCACACAGATGCACTAACCCATT [CACACA_site1883]",
    "reportedEndpoint": "gcPBM binding intensity (ln)",
    "experimentalResult": 10.7
  },
  {
    "residues": "TCAGATCCATAGAAGGTGCAAATAACAAAAATACAA [GTGCAC_site9610]",
    "reportedEndpoint": "gcPBM binding intensity (ln)",
    "experimentalResult": 10.9
  },
  {
    "residues": "TATATTTATATATTAGTGCACTTTTTGTTAATTTTT",
    "reportedEndpoint": "gcPBM binding intensity (ln)",
    "experimentalResult": 10.7
  },
  {
    "residues": "ATTATTTTTTTTGAAGTGCAATATTATTTTTAATCA",
    "reportedEndpoint": "gcPBM binding intensity (ln)",
    "experimentalResult": 8.2
  },
  {
    "residues": "GATAAATAATAATAAGGTACACATAAAATATTCCTT [XGTACX_site2963]",
    "reportedEndpoint": "gcPBM binding intensity (ln)",
    "experimentalResult": 6.86
  },
  {
    "residues": "GTGTATTTTGTGCGCACACACATGCAAAAAGAAATA [CACACA_site6660]",
    "reportedEndpoint": "gcPBM binding intensity (ln)",
    "experimentalResult": 9.54
  },
  {
    "residues": "ATTTATTTATTTATATGTACATATATATATATATAT [XGTACX_site339]",
    "reportedEndpoint": "gcPBM binding intensity (ln)",
    "experimentalResult": 9.54
  },
  {
    "residues": "TTCTTTGTAGTATATTAACACACAACTGTTTATAAT [CACACA_site9305]",
    "reportedEndpoint": "gcPBM binding intensity (ln)",
    "experimentalResult": 7.27
  },
  {
    "residues": "ATGAAATATTTATTTGTGCACTTAATTTGTTGGAAA",
    "reportedEndpoint": "gcPBM binding intensity (ln)",
    "experimentalResult": 10.4
  },
  {
    "residues": "AACCATTTTAAATATGCACACAGATGCACTAACACA [CACACA_site8565]",
    "reportedEndpoint": "gcPBM binding intensity (ln)",
    "experimentalResult": 11
  },
  {
    "residues": "TAAATTATATTATGCACACTTAAAAATATATTTAAC [CACACA_site3512]",
    "reportedEndpoint": "gcPBM binding intensity (ln)",
    "experimentalResult": 9.01
  },
  {
    "residues": "CATATAAATAGACACACACACACATATAAATAAATA [CACACA_site7156]",
    "reportedEndpoint": "gcPBM binding intensity (ln)",
    "experimentalResult": 7.23
  },
  {
    "residues": "TATATGGAGAGATATGCACACTGTATGAATGCCCCC [CACACA_site8853]",
    "reportedEndpoint": "gcPBM binding intensity (ln)",
    "experimentalResult": 9.32
  },
  {
    "residues": "TTGTTTATCAACAGCACACACAACAACAACAACAAC [CACACA_site458]",
    "reportedEndpoint": "gcPBM binding intensity (ln)",
    "experimentalResult": 7.25
  },
  {
    "residues": "TGAACTCACGAGCACACACACACATATATATATATA [CACACA_site8248]",
    "reportedEndpoint": "gcPBM binding intensity (ln)",
    "experimentalResult": 9.18
  }
]

Entry source: the supplement of paper PMC11417369
